- ASSAY_PROCEDURE: Solubility experiment in water
- Assay type: physicochemical
- REPORTED_CONDITIONS: 1h; 60 min
Counter-ions that a name gives are not always drawn.
RESULT_TYPE: Dynamic solubility in water (µg/mL)
Give a bare numeral; the unit µg/mL is implied.

Example results:
> print(dat)
                                   compound  obs.value
1  COc1ccc(Cl)cc1-c1cc(C)ncc1C(=O)Nc1nc2ncc(-c3ccc(C#N)cc3)nc2s1 [Crystal form C]     857.52
2  COc1ccc(Cl)cc1-c1cc(C)ncc1C(=O)Nc1nc2ncc(-c3ccc(C#N)cc3)nc2s1 [Amorphous form of sodium salt of compound of formula I]       1.57

Okay, now this compound:
Query Dynamic solubility in water for COc1ccc(Cl)cc1-c1cc(C)ncc1C(=O)Nc1nc2ncc(-c3ccc(C#N)cc3)nc2s1 [Crystal form A]
2081.71
